Test system: DU-4475
condition_summary: 72 h
parameter_measured: EC50, CellTiter-Blue viability

CO[C@H]1C[C@@H]2CC[C@@H](C)[C@@](O)(O2)C(=O)C(=O)N2CCCC[C@H]2C(=O)O[C@H]([C@H](C)C[C@@H]2CC[C@@H](O)[C@H](OC)C2)CC(=O)[C@H](C)/C=C(\C)[C@@H](O)[C@@H](OC)C(=O)[C@H](C)C[C@H](C)/C=C/C=C/C=C/1C
1.24 nM
Nc1nc(Cl)nc2c1ncn2[C@@H]1O[C@H](CO)[C@@H](O)[C@@H]1F
472 nM
CC[C@@H]1C(=O)N(C)c2cnc(Nc3ccc(C(=O)N[C@H]4CC[C@H](N5CCN(CC6CC6)CC5)CC4)cc3OC)nc2N1C(C)C
24.7 nM
COc1cc2c(Oc3ccc(NC(=O)C4(C(=O)Nc5ccc(F)cc5)CC4)cc3F)ccnc2cc1OCCCN1CCOCC1
748 nM
